// data source = patent US8741578B2

System: ZAP-70 in CLL cells
PROTOCOL_DETAILS: ZAP-70 expression in CLL cells after treatment (intracellular staining, immunoblot)
Assay type: cell-based, human
ASSAY_CONDITIONS: Homo sapiens, CLL cell, 24 h, read-out: IC50, dose-dependent reduction of leukemia-cell ZAP-70 expression
pIC50: −log10 of the molar value.
MEASUREMENT_KIND: pIC50

| COMPOUND | MEASUREMENT_KIND | ENDPOINT_VALUE |
| --- | --- | --- |
| C=CCNC1=C2CC(C)CC(OC)C(O)C(C)/C=C(\C)C(OC(N)=O)C(OC)/C=C\C=C(/C)C(=O)NC(=CC1=O)C2=O (stereo not shown) | pIC50 | 7.22 |
